Below is a list of entries, each paired with its recorded Kd value.
- Study target: GDP-bound KRAS wild-type protein (Homo sapiens)
- Experimental protocol: Binding to KRAS by surface plasmon resonance (SPR), Single Cycle Kinetics
- Protocol conditions: SPR, Single Cycle Kinetics, GDP-bound KRAS wild-type protein; read-out: KRAS KD
Give your result as the value with the unit written after it.

Record excerpt, results attached:
Form field, Kd with GDP-bound KRAS wild-type protein (Homo sapiens), item CCC[C@H]1C(=O)N[C@@H]([C@@H](C)CC)C(=O)N(C)CC(=O)N(C)[C@H]2C/C=C\CCN(C2=O)[C@@H](Cc2ccc(C(F)(F)F)cc2)C(=O)N(C)CC(=O)N[C@@H](CCc2cc(F)c(C(F)(F)F)c(F)c2)C(=O)N2CC(F)(F)C[C@H]2C(=O)NC2(CC(C)(C)C2)C(=O)N(C)[C@@H](C2CCCC2)C(=O)N(C)[C@H](C(=O)N(C)C)CC(=O)N1C [PP1711] : 0.093 nM

# value of Kd, GDP-bound KRAS wild-type protein (Homo sapiens), item CCC[C@H]1C(=O)N[C@@H](CC(C)C)C(=O)N(CCOC)CC(=O)N(C)[C@H]2C/C=C\CCN(C2=O)[C@@H](Cc2ccc(C)cc2)C(=O)N(C)CC(=O)N[C@@H](CCc2cc(F)c(C(F)(F)F)c(F)c2)C(=O)N2C[C@H](OCC)C[C@H]2C(=O)NC2(CC(C)(C)C2)C(=O)N(C)[C@@H](C2CCCC2)C(=O)N(C)[C@H](C(=O)N(C)C)CC(=O)N1C [PP2520] = 3.3 nM

Let's switch to this compound now.
Given the compound CC[C@H](C)[C@@H]1NC(=O)[C@H](CC(C)C)N(C)C(=O)C[C@@H](C(=O)N2CCOCC2)N(C)C(=O)[C@H](C2CCCC2)N(C)C(=O)C2(CCC2)NC(=O)[C@@H]2[C@H]3C[C@H]3CN2C(=O)[C@H](CCc2cc(F)c(C(F)(F)F)c(F)c2)NC(=O)CN(C)C(=O)[C@H](Cc2ccc(C(F)(F)F)cc2)N2CCCC[C@@H](C2=O)N(C)C(=O)CN(C)C1=O [PP0810] and test system GDP-bound KRAS wild-type protein (Homo sapiens), the measured Kd is 0.04 nM

====

- Study target: GDP-bound KRAS wild-type protein (Homo sapiens, UniProt P01116)
- Sequence (P01116 whole entry): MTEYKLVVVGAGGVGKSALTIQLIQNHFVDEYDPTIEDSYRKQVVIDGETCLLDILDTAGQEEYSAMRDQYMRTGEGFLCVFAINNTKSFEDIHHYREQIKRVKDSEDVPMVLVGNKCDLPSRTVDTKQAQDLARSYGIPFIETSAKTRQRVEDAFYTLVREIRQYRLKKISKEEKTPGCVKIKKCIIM
- Experimental protocol: Binding to KRAS by surface plasmon resonance (SPR), Single Cycle Kinetics
- Protocol conditions: SPR, Single Cycle Kinetics, GDP-bound KRAS wild-type protein; read-out: KRAS KD
Kd strictly less than 0.1 nM = rule met. Otherwise rule not met.

Bench note: check whether CCO[C@@H]1C[C@H]2C(=O)NC3(CC(C)(C)C3)C(=O)N(C)[C@@H](C3CCCC3)C(=O)N(C)[C@H](C(=O)N(C)C)CC(=O)N(C)[C@@H](CC(C)C)C(=O)N[C@@H]([C@@H](C)CC)C(=O)N(C)CC(=O)N(C)[C@H]3C/C=C\CCN(C3=O)[C@@H](Cc3ccc(C(F)(F)F)cc3)C(=O)N(C)CC(=O)N[C@@H](CCc3ccc(C(F)(F)F)c(Cl)c3)C(=O)N2C1 [PP1751] shows Kd below 0.1 nM rule met

Continuing:
Report whether reported Kd is lower than 0.1 nM (strictly) for CCCOC[C@H]1C(=O)N[C@@H]([C@@H](C)CC)C(=O)N2CCC[C@H]2C(=O)N(C)[C@H]2C/C=C\CCN(C2=O)[C@@H](Cc2ccc(C)cc2)C(=O)N(C)CC(=O)N[C@@H](CCc2ccc(C(F)(F)F)c(OC)c2)C(=O)N2C[C@H](OCC)C[C@H]2C(=O)N(C)C2(CCC2)C(=O)N(C)[C@@H](C2CCCC2)C(=O)N(C)[C@H](C(=O)N(C)C)CC(=O)N1C [PP2334] rule not met

Dear reviewer, please state whether CCO[C@@H]1C[C@H]2C(=O)NC3(CC(C)(C)C3)C(=O)N(C)[C@@H](C(CC)CC)C(=O)N(C)[C@H](C(=O)N3CCCC3)CC(=O)N(C)[C@@H](C)C(=O)N[C@@H]([C@@H](C)CC)C(=O)N(C)CC(=O)N(C)[C@H]3C/C=C\CCN(C3=O)[C@@H](Cc3ccc(C)cc3)C(=O)N(C)CC(=O)N[C@@H](CCc3cc(F)c(C(F)(F)F)c(F)c3)C(=O)N2C1 [PP2145] has Kd strictly beneath 0.1 nM. rule not met

Please state whether Kd is below 0.1 nM for CCO[C@@H]1C[C@H]2C(=O)NC3(CCC3)C(=O)N(C)[C@@H](C3CCCC3)C(=O)N(C)[C@H](C(=O)N(C)C)CC(=O)N(C)[C@@H](CC(C)C)C(=O)N[C@@H]([C@@H](C)CC)C(=O)N3CC[C@H]3C(=O)N(C)[C@H]3CC(C)=C(C)CN(C3=O)[C@@H](Cc3ccc(C(F)(F)F)cc3)C(=O)N(C)CC(=O)N[C@@H](CCc3cc(F)c(C(F)(F)F)c(F)c3)C(=O)N2C1 [PP1047] rule not met

Given CCO[C@@H]1C[C@H]2C(=O)NC3(CC(C)(C)C3)C(=O)N(C)[C@@H](C3CCCC3)C(=O)N(C)[C@H](C(=O)N(C)C)CC(=O)N(C)[C@@H](CC3CC3)C(=O)N[C@@H]([C@@H](C)CC)C(=O)N(C)CC(=O)N(C)[C@H]3C/C=C\CCN(C3=O)[C@@H](Cc3ccc(C(F)(F)F)cc3)C(=O)N(C)CC(=O)N[C@@H](CCc3cc(F)c(Cl)c(F)c3)C(=O)N2C1 [PP1759] , is recorded Kd strictly lower than 0.1 nM? rule not met

# TODO verify Kd < 0.1 nM strictly for this compound: CC[C@H](C)[C@@H]1NC(=O)[C@H](C2CC2)N(C)C(=O)C[C@@H](C(=O)N(C)CC)N(C)C(=O)[C@H](C2CCCC2)N(C)C(=O)C2(CC(C)(C)C2)NC(=O)[C@@H]2C[C@H](C)CN2C(=O)[C@H](CCc2ccc(C(F)(F)F)c(OC)c2)NC(=O)CN(C)C(=O)[C@H](Cc2ccc(C(F)(F)F)cc2)N2CC/C=C\C[C@@H](C2=O)N(C)C(=O)CN(C)C1=O [PP2007] rule not met

Identify whether the compound CCO[C@@H]1C[C@H]2C(=O)NC3(CC(C)(C)C3)C(=O)N(C)[C@@H](C3CCCC3)C(=O)N(C)[C@H](C(=O)N(C)CC)CC(=O)N(C)[C@H]3CCCC/C=C/c4ccc(cc4)C[C@@H](C(=O)N(C)CC(=O)N[C@@H](CCc4ccc(C(F)(F)F)c(OC)c4)C(=O)N2C1)N1CC/C=C\C[C@@H](C1=O)N(C)C(=O)CN(C)C(=O)[C@H]([C@@H](C)CC)NC3=O [PP1830] records Kd below 0.1 nM. rule met

Regarding CCCO[C@@H]1C[C@H]2C(=O)NC3(CCC3)C(=O)N(C)[C@@H](C3CCCC3)C(=O)N(C)[C@H](C(=O)N3CCOCC3)CC(=O)N(C)[C@@H](CC(C)C)C(=O)N[C@@H]([C@@H](C)CC)C(=O)N(C)CC(=O)N(C)[C@H]3CCCCN(C3=O)[C@@H](Cc3ccc(C(F)(F)F)cc3)C(=O)N(C)CC(=O)N[C@@H](CCc3cc(F)c(C(F)(F)F)c(F)c3)C(=O)N2C1 [PP1159] , kindly confirm whether its Kd is beneath 0.1 nM. rule met

Where do these numbers come from? They come from patent US20240158446A1.
